// data source = paper PMC12029531

# Tested on: Bacillus sphaericus
# assay.text: MIC and MBC, broth micro-dilution
# Type: cell-based
# experimental.setup: Lysinibacillus sphaericus, B. sphaericus; read-out: MBC
endpoint.name: MBC (µg/mL)

compound: CNC(C)C1CCC(N)C(OC2C(N)CC(N)C(OC3OCC(C)(O)C(NC)C3O)C2O)O1 (stereo not shown)
measurement.target: Bacillus sphaericus
endpoint.name: MBC
units.of.measure: µg/mL
inequality.symbol: =
recorded.result: 0.78

compound: NNC(=O)c1ccncc1
measurement.target: Bacillus sphaericus
endpoint.name: MBC
units.of.measure: µg/mL
inequality.symbol: >
recorded.result: 200

compound: COc1cc(Cc2cnc(N)nc2N)cc(OC)c1OC
measurement.target: Bacillus sphaericus
endpoint.name: MBC
units.of.measure: µg/mL
inequality.symbol: =
recorded.result: 6.25

compound: Nc1ccc(S(=O)(=O)Nc2ncccn2)cc1
measurement.target: Bacillus sphaericus
endpoint.name: MBC
units.of.measure: µg/mL
inequality.symbol: >
recorded.result: 200
